pERK EC50 (nM) values by entry
- target-under-test: T1, human MIC-1 receptor (hGFRAL, GDNF family receptor alpha like) (human, UniProt Q6UXV0 19-394)
- T1 sequence (looked up): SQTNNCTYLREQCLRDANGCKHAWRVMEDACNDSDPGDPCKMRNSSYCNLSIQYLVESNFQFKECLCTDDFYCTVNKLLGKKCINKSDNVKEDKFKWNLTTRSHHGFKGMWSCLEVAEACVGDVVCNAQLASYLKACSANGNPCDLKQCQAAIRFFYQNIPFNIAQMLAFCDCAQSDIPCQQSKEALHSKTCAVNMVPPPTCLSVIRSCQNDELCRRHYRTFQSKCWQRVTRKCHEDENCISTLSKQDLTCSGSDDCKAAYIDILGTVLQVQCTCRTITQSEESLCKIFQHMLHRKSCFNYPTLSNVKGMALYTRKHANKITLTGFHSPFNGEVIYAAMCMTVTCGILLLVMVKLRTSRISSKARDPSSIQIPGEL
- measurement-notes: cell-based or functional assay
State the answer as a number, implicitly in nM.

TSESATPESGPGTSESATPESGPG-MIC-1(R2A, N3E) (ligand) TSESATPESGPGTSESATPESGPGAAEGDHCPLGPGRCCRLHTVRASLEDLGWADWVLSPREVQVTMCIGACPSQFRAANMHAQIKTSLHRLKPDTVPAPCCVPASYNPMVLIQKTDTGVSLQTYDDLLAKDCHCI	0.3

*Q* Returns the measured pERK EC50 (nM) for the input binder. Input: MIC-1(R2A, N3E, H18E) (ligand) AAEGDHCPLGPGRCCRLETVRASLEDLGWADWVLSPREVQVTMCIGACPSQFRAANMHAQIKTSLHRLKPDTVPAPCCVPASYNPMVLIQKTDTGVSLQTYDDLLAKDCHCI
*A* 0.5

*Q* Returns the measured pERK EC50 (nM) for the input binder. Input: MIC-1(R2A, N3E, A30E) (ligand) AAEGDHCPLGPGRCCRLHTVRASLEDLGWEDWVLSPREVQVTMCIGACPSQFRAANMHAQIKTSLHRLKPDTVPAPCCVPASYNPMVLIQKTDTGVSLQTYDDLLAKDCHCI
*A* 0.7

*Q* Returns the measured pERK EC50 (nM) for the input binder. Input: MIC-1(R2A, N3E, M57E) (ligand) AAEGDHCPLGPGRCCRLHTVRASLEDLGWADWVLSPREVQVTMCIGACPSQFRAANEHAQIKTSLHRLKPDTVPAPCCVPASYNPMVLIQKTDTGVSLQTYDDLLAKDCHCI
*A* 0.3
